pEC50 for assorted compounds
Molecular target: Arabidopsis thaliana SHMT
Test: SHMT activity assay (ED50 SHMT), coupled with N5,N10-CH2-THF dehydrogenase, NADH at 340 nm
Format: biochemical
Details: Table 2; values given as upper bounds
pEC50: −log10 of the molar value.

1. Cc1n[nH]c2c1C(c1cc(C#N)cc(-c3cc(Cl)cc(C(=O)O)c3)c1)(C1CCC1)C(C#N)=C(N)O2 (centres unmarked) ... > 7.00

*Q* What pEC50 value was documented for this compound, CCc1n[nH]c2c1C(c1ccc(OC)c(Cl)c1)(C1CC1)C(C#N)=C(N)O2 (centres unmarked) ?
*A* > 6.00

*Q* Need pEC50 of CCC1(c2ccc(OS(=O)(=O)c3ccccc3)c(C)c2)C(C#N)=C(N)Oc2[nH]nc(C)c21 (centres unmarked) , thanks.
*A* > 6.00

*Q* For Cc1n[nH]c2c1C(c1ccc(Cl)cc1)(C1CCC1)C(C#N)=C(N)O2 (centres unmarked) , what is its reported pEC50?
*A* > 6.00

*Q* Any idea what its pEC50 is? The compound is CCC1(c2ccc(OC(=O)c3ccccc3)c(C)c2)C(C#N)=C(N)Oc2[nH]nc(C)c21 (centres unmarked)
*A* > 6.00

*Q* pEC50 lookup needed for CCC1(c2cc(Cl)cc(C#N)c2)C(C#N)=C(N)Oc2[nH]nc(C(F)F)c21 (centres unmarked) , thanks.
*A* > 8.00

*Q* Entry N#CC1=C(N)Oc2[nH]nc(CO)c2C1(c1cc(C(F)(F)F)cc(C(F)(F)F)c1)C1(F)CC1 (centres unmarked) has what pEC50?
*A* > 7.00

*Q* Given the compound CCOC(=O)COc1cc(Cl)cc(C2(C3CCC3)C(C#N)=C(N)Oc3[nH]nc(C)c32)c1 (centres unmarked) , what is its reported pEC50?
*A* > 7.00

*Q* Param item = CC(C)CC1(c2cc(Cl)cc(Cl)c2)C(C#N)=C(N)Oc2[nH]ncc21 (centres unmarked) ; retrieve measured pEC50.
*A* > 5.00

*Q* Which pEC50 value belongs to CCC1(c2cc(Br)cc(C#N)c2)C(C#N)=C(N)Oc2[nH]nc(C(F)F)c21 (centres unmarked) ?
*A* > 8.00

*Q* What does the record list as pEC50 for Cc1n[nH]c2c1C(c1ccc(Cl)cc1)(C(F)(F)C(F)(F)F)C(C#N)=C(N)O2 (centres unmarked) ?
*A* > 6.00

###

Target: Arabidopsis thaliana SHMT
Test: SHMT activity assay (ED50 SHMT), coupled with N5,N10-CH2-THF dehydrogenase, NADH at 340 nm
Type: biochemical
Settings: inhibition of initial velocity of Arabidopsis thaliana SHMT
# reported EC50; entries follow

Example entries begin here.
1) Cc1n[nH]c2c1C(c1ccc(-c3ccccc3C(F)(F)F)s1)(C1CCC1)C(C#N)=C(N)O2 (stereo not shown) ... < 10 nM
2) CCC1(CCC2CCCCC2)C(C#N)=C(N)Oc2[nH]nc(C)c21 (racemic) ... < 1000 nM
3) CCc1n[nH]c2c1C(c1ccc(Cl)s1)(C1CC1)C(C#N)=C(N)O2 (stereo not shown) ... < 10000 nM

Kindly review the next molecule as well.
*Q* Please state recorded EC50 (tested on Arabidopsis thaliana SHMT) of Cc1n[nH]c2c1C(c1nc3c(Br)cccc3o1)(C1CCC1)C(C#N)=C(N)O2 (racemic)
*A* < 100 nM

###

Target: Arabidopsis thaliana SHMT
Experiment: SHMT activity assay (ED50 SHMT), coupled with N5,N10-CH2-THF dehydrogenase, NADH at 340 nm
Type: biochemical
Conditions: Table 2; values given as upper bounds
pEC50: −log10 of the molar value.
Documented pEC50 across a set of compounds

Take a look at these entries with their results.
1. Cc1n[nH]c2c1C(c1cc(Cl)cc(-c3ccc(NS(C)(=O)=O)cc3)c1)(C1CCC1)C(C#N)=C(N)O2 (racemic) ... > 8.00
2. Cc1n[nH]c2c1C(c1cc(F)cc(Cl)c1)(C1CCC1)C(C#N)=C(N)O2 (stereo not shown) ... > 7.00
3. Cc1n[nH]c2c1C(c1cc(C(F)(F)F)cc(C(F)(F)F)c1)(C1CC(O)C1)C(C#N)=C(N)O2 (racemic) ... > 7.00

Turning now to a further compound:
*Q* # get_value(readout='pEC50', item= Cc1n[nH]c2c1C(c1cc(C#N)cc(-c3ccc(C(=O)O)cc3)c1)(C(C)C)C(C#N)=C(N)O2 (stereo not shown) )
*A* > 8.00

###

Biological target: Arabidopsis thaliana SHMT
Test: SHMT activity assay (ED50 SHMT), coupled with N5,N10-CH2-THF dehydrogenase, NADH at 340 nm
Assay type: biochemical
Details: Arabidopsis thaliana SHMT enzyme assay; values given as upper bounds
pEC50: −log10 of the molar value.
attribute-measured: pEC50

1) Cc1n[nH]c2c1C(c1ccc(CC#N)c(C#N)c1)(C1CCC1)C(C#N)=C(N)O2 (stereo not drawn) ... > 8.00

*Q* Need pEC50, item Cc1n[nH]c2c1C(c1cc(C#N)cc(C#N)c1)(C1CC(F)(F)C1)C(C#N)=C(N)O2 (stereo not drawn)
*A* > 6.00

*Q* Using the record for Cc1n[nH]c2c1C(c1cc(C#N)cc(N(C)CCCC(=O)O)c1)(C1CCC1)C(C#N)=C(N)O2 (stereo not drawn) , report its pEC50.
*A* > 7.00

*Q* Need pEC50 of Cc1n[nH]c2c1C(c1cc(CCCc3nnn[nH]3)cc(-c3nnn[nH]3)c1)(C(C)C)C(C#N)=C(N)O2 (stereo not drawn) , thanks.
*A* > 6.00

*Q* If you can, please state the reported pEC50 value of Cc1n[nH]c2c1C(c1cc(C#N)cc(C#N)c1)(C1CC(F)C1)C(C#N)=C(N)O2 (stereo not drawn) .
*A* > 7.00

*Q* Request the reported pEC50 associated with Cc1n[nH]c2c1C(c1cc(C#N)cc(N(C)S(=O)(=O)CC#N)c1)(C1CCC1)C(C#N)=C(N)O2 (stereo not drawn)
*A* > 7.00

*Q* I have this molecule here, Cc1n[nH]c2c1C(c1cc(Cl)cc(N(C)C(=O)CC#N)c1)(C1CCC1)C(C#N)=C(N)O2 (stereo not drawn) , and I need its recorded pEC50.
*A* > 8.00

*Q* Which pEC50 value is on record for Cc1n[nH]c2c1C(c1cc(C#N)cc(CCCC#N)c1)(C(C)C)C(C#N)=C(N)O2 (stereo not drawn) ?
*A* > 8.00

*Q* I have this molecule here, Cc1n[nH]c2c1C(c1cc(Br)cc(N(C)C(=O)Cc3nnn[nH]3)c1)(C1CCC1)C(C#N)=C(N)O2 (stereo not drawn) , and I need its recorded pEC50.
*A* > 8.00

*Q* Looking for the measured pEC50 of Cc1n[nH]c2c1C(c1cc(Br)cc(Br)c1)(C1CC(F)(F)C1)C(C#N)=C(N)O2 (stereo not drawn) , can you help?
*A* > 7.00

*Q* I am curious: what pEC50 value has been reported for CCOC(=O)CS(=O)(=O)N(C)c1cc(C#N)cc(C2(C(C)C)C(C#N)=C(N)Oc3[nH]nc(C)c32)c1 (stereo not drawn) ?
*A* > 7.00

*Q* Returns the measured pEC50 for the input molecule. Input: Cc1n[nH]c2c1C(c1cc(CCc3nnn[nH]3)cc(-c3nnn[nH]3)c1)(C(C)C)C(C#N)=C(N)O2 (stereo not drawn)
*A* > 5.00

###

Target: Arabidopsis thaliana SHMT
Test: SHMT activity assay (ED50 SHMT), coupled with N5,N10-CH2-THF dehydrogenase, NADH at 340 nm
Type: biochemical
Details: Table 2; values given as upper bounds
attribute-measured: EC50

Before answering, review these 3 worked examples.
1) CCC1(c2ccc(OS(=O)(=O)CC)cc2)C(C#N)=C(N)Oc2[nH]nc(C)c21 (stereo not drawn) ... < 10000 nM
2) CCCC1(c2cc(Br)cc(C#N)c2)C(C#N)=C(N)Oc2[nH]nc(C(F)F)c21 (stereo not drawn) ... < 100 nM
3) CCCC1(c2cc(Cl)cc(Cl)c2)C(C#N)=C(N)Oc2[nH]nc(C)c21 (stereo not drawn) ... < 1000 nM

*Q* Please report the recorded EC50 for CCc1n[nH]c2c1C(CC)(c1cc(C#N)cc(C(F)(F)F)c1)C(C#N)=C(N)O2 (stereo not drawn) .
*A* < 10 nM

*Q* Value lookup for EC50; key = COc1ccc(C2(C(C)C)C(C#N)=C(N)Oc3[nH]nc(C4CC4)c32)cc1Cl (stereo not drawn)
*A* < 1000 nM

*Q* Looking for the measured EC50 of N#CC1=C(N)Oc2[nH]nc(C(F)F)c2C1(c1cccc(C#N)c1)C1CCC1 (stereo not drawn) , can you help?
*A* < 1000 nM

*Q* Consider the molecule shown here: CCC1(c2ccc(Cl)c(Cl)c2)C(C#N)=C(N)Oc2[nH]nc(C)c21 (stereo not drawn) What is its recorded EC50?
*A* < 100 nM

*Q* # get_value(readout='EC50', item= Cc1n[nH]c2c1C(CC(C)C)(c1cc(C(F)(F)F)cc(C(F)(F)F)c1)C(C#N)=C(N)O2 (stereo not drawn) )
*A* < 100 nM

*Q* // lookup EC50 for Cc1n[nH]c2c1C(c1cc(C#N)cc(-c3cc(OC(F)(F)F)cc(C(=O)O)c3)c1)(C1CCC1)C(C#N)=C(N)O2 (stereo not drawn)
*A* < 10 nM

*Q* For the molecule shown here, Cc1n[nH]c2c1C(c1cccc(C(F)(F)F)c1)(C1CC1)C(C#N)=C(N)O2 (stereo not drawn) , give the reported EC50.
*A* < 1000 nM

*Q* Entry under review: Cc1n[nH]c2c1C(c1cc(Cl)cc(CCC(=O)O)c1)(C1CCC1)C(C#N)=C(N)O2 (stereo not drawn) . Reported EC50?
*A* < 10 nM
